Each recorded value in this set is attributed to patent US10947242B2.

Would you kindly list log10 IC50 for each of these compounds?
measured_target: Human recombinant PDE10A (hPDE10A) (Homo sapiens, UniProt Q9Y233)
Construct: His tag (inferred from metal chelate purification); made in house; host or cells: Sf9 insect cells (baculovirus)
Sequence (Q9Y233 267-1055): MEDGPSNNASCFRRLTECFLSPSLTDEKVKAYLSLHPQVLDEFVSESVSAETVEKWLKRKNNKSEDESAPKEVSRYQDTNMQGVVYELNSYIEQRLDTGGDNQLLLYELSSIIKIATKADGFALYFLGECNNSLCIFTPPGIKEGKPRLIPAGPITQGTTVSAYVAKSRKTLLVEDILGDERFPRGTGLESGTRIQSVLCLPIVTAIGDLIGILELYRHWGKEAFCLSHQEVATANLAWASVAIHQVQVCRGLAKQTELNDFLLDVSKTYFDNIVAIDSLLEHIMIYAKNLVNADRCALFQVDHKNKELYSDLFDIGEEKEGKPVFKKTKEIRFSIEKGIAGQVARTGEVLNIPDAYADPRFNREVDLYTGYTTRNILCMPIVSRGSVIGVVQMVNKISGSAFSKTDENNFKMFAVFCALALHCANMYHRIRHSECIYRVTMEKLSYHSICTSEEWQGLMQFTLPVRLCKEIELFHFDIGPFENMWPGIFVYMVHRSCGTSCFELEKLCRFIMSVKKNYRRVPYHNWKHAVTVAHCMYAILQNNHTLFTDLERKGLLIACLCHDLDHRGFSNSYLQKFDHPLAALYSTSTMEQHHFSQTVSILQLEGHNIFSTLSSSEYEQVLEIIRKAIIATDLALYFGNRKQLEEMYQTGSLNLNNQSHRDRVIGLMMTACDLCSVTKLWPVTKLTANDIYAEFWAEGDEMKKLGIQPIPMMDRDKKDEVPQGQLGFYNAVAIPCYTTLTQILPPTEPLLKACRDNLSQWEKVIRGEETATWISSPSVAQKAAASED
measurement_protocol: In vitro assay PDE10A, human clone (SPA, 3H-cAMP hydrolysis)
Type: biochemical
condition_label: human clone by default (no (r) mark); read-out: hPDE10A2 or rPDE10A2 pIC50 (converted)
Recorded IC50 (log10, nM)

Just so you know, measured log10 IC50 for O=C(c1ccc(F)c(F)c1)N1[C@H]2CC[C@H](c3cc(C(F)F)nc4ncnn34)[C@@H]1CC2 [Compound 337] came out at 3.66

Just so you know, measured log10 IC50 for CC(C)(C)c1ccc(C(=O)N2[C@H]3CC[C@H](c4cc(C(F)F)nc5ncnn45)[C@@H]2CC3)o1 [Compound 348] came out at 3.11

Just so you know, measured log10 IC50 for Cn1ccc2cc(C(=O)N3[C@H]4CC[C@H](c5cc(C(F)F)nc6ncnn56)[C@@H]3CC4)cc(F)c21 [Compound 374] came out at 2.26

Just so you know, measured log10 IC50 for C[C@@H]1CCN(C(=O)c2ccc3scnc3c2)C[C@H]1c1cc(C(F)F)nc2ncnn12 [Compound 227] came out at 1.66

Just so you know, measured log10 IC50 for C[C@@H]1CCN(C(=O)c2ccc3cnccc3c2)C[C@H]1c1cc(C(F)F)nc2ncnn12 [Compound 326] came out at 1.78

Just so you know, measured log10 IC50 for O=C(c1ccc2occc2c1)N1[C@H]2CC[C@H](c3cc(C(F)F)nc4ncnn34)[C@@H]1CC2 [Compound 353] came out at 2.99

Just so you know, measured log10 IC50 for C[C@@H]1CCN(C(=O)c2cc(C(C)(C)C)nc(C(C)(C)C)c2)C[C@H]1c1cc(C(F)F)nc2ncnn12 [Compound 266] came out at 3.42

Just so you know, measured log10 IC50 for C[C@@H]1CCN(C(=O)c2ccc3ccccc3n2)C[C@H]1c1cc(C(F)F)nc2ncnn12 [Compound 323] came out at 2.35

Just so you know, measured log10 IC50 for Cc1cc([C@H]2CN(C(=O)c3ccc4nccn4c3)CC[C@@H]2C)n2ncnc2n1 [Compound 216] came out at 3.65

Just so you know, measured log10 IC50 for O=C(c1ccc(F)c(Cl)c1)N1[C@H]2CC[C@H](c3cc(C(F)F)nc4ncnn34)[C@@H]1CC2 [Compound 377] came out at 3.11

Just so you know, measured log10 IC50 for O=C(c1ccc2c(c1)OC(F)(F)O2)N1[C@H]2CC[C@H](c3cc(C(F)F)nc4ncnn34)[C@@H]1CC2 [Compound 350] came out at 3.32

Just so you know, measured log10 IC50 for C[C@@H]1CCN(C(=O)c2ccnnc2)C[C@H]1c1cc(C(F)F)nc2ncnn12 [Compound 248] came out at 4.02

Just so you know, measured log10 IC50 for O=C(c1ccc2ccccc2c1)N1[C@H]2CC[C@H](c3cc(C(F)F)nc4ncnn34)[C@@H]1CC2 [Compound 319] came out at 2.42

###

measured_target: Human recombinant PDE2A (hPDE2A) (Homo sapiens)
Construct: His tag (inferred from metal chelate purification); made in house; host or cells: Sf9 insect cells (baculovirus)
Sequence (O00408 whole entry): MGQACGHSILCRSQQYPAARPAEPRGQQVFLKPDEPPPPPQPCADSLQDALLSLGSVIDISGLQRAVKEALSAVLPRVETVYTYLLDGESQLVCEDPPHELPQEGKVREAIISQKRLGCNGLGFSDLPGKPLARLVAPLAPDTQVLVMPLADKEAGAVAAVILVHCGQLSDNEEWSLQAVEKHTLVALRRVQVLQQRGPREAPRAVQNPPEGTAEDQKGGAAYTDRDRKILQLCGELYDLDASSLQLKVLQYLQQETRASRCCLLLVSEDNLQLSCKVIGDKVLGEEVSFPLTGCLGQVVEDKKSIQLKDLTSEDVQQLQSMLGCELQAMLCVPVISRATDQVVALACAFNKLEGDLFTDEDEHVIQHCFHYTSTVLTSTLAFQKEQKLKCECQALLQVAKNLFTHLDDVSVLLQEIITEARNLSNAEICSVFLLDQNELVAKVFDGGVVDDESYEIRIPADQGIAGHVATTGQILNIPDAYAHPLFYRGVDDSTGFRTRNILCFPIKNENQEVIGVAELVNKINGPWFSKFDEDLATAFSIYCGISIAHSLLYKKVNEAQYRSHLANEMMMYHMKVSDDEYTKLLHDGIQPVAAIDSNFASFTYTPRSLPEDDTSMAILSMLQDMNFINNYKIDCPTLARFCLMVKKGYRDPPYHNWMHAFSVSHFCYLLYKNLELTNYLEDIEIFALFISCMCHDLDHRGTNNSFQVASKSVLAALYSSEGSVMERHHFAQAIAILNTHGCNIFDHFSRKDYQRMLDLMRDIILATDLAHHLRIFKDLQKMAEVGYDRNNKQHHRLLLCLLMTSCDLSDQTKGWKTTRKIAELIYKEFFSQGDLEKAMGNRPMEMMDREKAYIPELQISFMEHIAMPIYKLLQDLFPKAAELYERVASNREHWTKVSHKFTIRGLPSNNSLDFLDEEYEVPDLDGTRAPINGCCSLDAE
measurement_protocol: In vitro assay PDE2A (SPA, 3H-cGMP hydrolysis)
Format: biochemical
condition_label: human recombinant PDE2A, 10 μM cGMP substrate; read-out: hPDE2A pIC50 (converted)
quantity_measured: log10(IC50) (log10 of the value in nM)
Recorded IC50 (log10, nM)

Just so you know, measured log10(IC50) for COc1ccc(C(C)(C)C)cc1C(=O)N1CC[C@@H](C)[C@H](c2cc(C(F)F)nc3ncnn23)C1 [Compound 165] came out at 1.97

Just so you know, measured log10(IC50) for Cc1cc(C(=O)N2CC[C@@H](C)[C@H](c3cc(C(F)F)nc4ncnn34)C2)c(C)cn1 [Compound 32] came out at 0.54

Just so you know, measured log10(IC50) for C[C@@H]1CCN(C(=O)c2cnc(N(C)C)nc2)C[C@H]1c1cc(C(F)F)nc2ncnn12 [Compound 174] came out at 0.72

Just so you know, measured log10(IC50) for C[C@@H]1CCN(C(=O)c2ccc(N)nc2)C[C@H]1c1cc(C(F)F)nc2ncnn12 [Compound 181] came out at 0.66

Just so you know, measured log10(IC50) for Cc1nc2ccc(C(=O)N3CC[C@@H](C)[C@H](c4cc(C(F)F)nc5ncnn45)C3)cc2o1 [Compound 127] came out at 0.35

Just so you know, measured log10(IC50) for C[C@@H]1CCN(C(=O)c2ccc3c(c2)OCCC3)C[C@H]1c1cc(C(F)F)nc2ncnn12 [Compound 96] came out at -0.26

Just so you know, measured log10(IC50) for C[C@@H]1CCN(C(=O)c2ccc(F)c(OC(F)F)c2)C[C@H]1c1cc(C(F)F)nc2ncnn12 [Compound 193] came out at 0.77
